src = PubChem BioAssay (NCI)

Tested on: SR leukemia
Assay: NCI-60 one-dose screen, 48 h
Settings: 10 µM
This is part of a sample that, as a whole, favours compounds with a hit. Of some 83,000 tested, about 20% had one in any assay. The source made the active and inactive calls. Rule for the calls: active = growth percent below 10; inactive = the rest.
I would appreciate it if you answered using one of these outcomes: class 1 for active, class 0 for inactive

Please let me know the test result on file for CC1=NN(c2ccccc2)C(=O)/C1=C\N1CC(=O)NC1=S .
class 0

====

Test system: NCI-H226 lung
Assay: NCI-60 one-dose screen, 48 h (100 = growth as untreated, 0 = no growth, -100 = all killed)
Details: 10 µM
This is part of a sample that, as a whole, favours compounds with a hit. Of some 83,000 tested, about 20% had one in any assay.
Provide the reported growth of each item.
Answers are plain numbers, in %.

> print(dat)
                                   compound  value.measured
1  COC(=O)c1cc(-c2ccc(Cl)c(Cl)c2)[nH]c(=O)c1C#N            94.6
2  O=C(O)CCC(NC(=O)OCc1ccccc1)C(=O)O (stereo not drawn)            98.8
3  CC(=O)OCC1=CC2OC(=O)C3=COC(OC4OC(CO)C(O)C(O)C4O)C1C32 (stereo not drawn)             105
4     COCCCNC(=O)c1nnn2c1nc(N)c1cc(Cl)ccc12            94.1
5                           NCC(=O)CCC(=O)O            99.2
6                 CC(=O)Oc1ccc(Br)cc1C(=O)O              99

# return growth for each item in the list
1. COc1cccc(Sc2ccc([N+](=O)[O-])c3no[n+]([O-])c23)c1
2. CN(C)C(=O)Oc1cccc([N+](C)(C)C)c1
3. CCCCC(CC)COC(C)=O (stereo not drawn)
4. C=CC(=O)OCCCCCCCC
5. C=CC(O)CCC (stereo not drawn)

[85.3, 92.8, 105, 98.9, 115]

Hi there! I need growth for each item below, if you can.
1. CCOC(=O)c1ccc(Nc2sc(C(=O)c3cccc([N+](=O)[O-])c3)c(N)c2C#N)cc1
2. Cc1ccc(CCCC(=O)O)c(C)c1

1: 41; 2: 93.4
